// reported shrunken log2 fold change per item
System: Escherichia coli TOP10
Experiment: shrunken log2 fold change of peptide-encoding DNA abundance (4.5 h post-induction vs induction); higher = less antimicrobial activity (less host growth inhibition)
Details: time post-induction: 4.5 h; library: site-saturation at positions 5, 18, 19, 20
# answer = number (no unit)

Known results for sequences:
Sample RRIRGRPPRLPRPRPRPGKRPRP — what was its shrunken log2 fold change? 0.249

Another sequence to look at: RRIRCRPPRLPRPRPRPQRAPRP -0.012

Another sequence to look at: RRIRPRPPRLPRPRPRPLGSPRP -0.0459

Another sequence to look at: RRIRARPPRLPRPRPRPWNIPRP -0.675

Another sequence to look at: RRIRVRPPRLPRPRPRPRWEPRP 0.329

More entries:
Sample RRIRMRPPRLPRPRPRPTQHPRP — what was its shrunken log2 fold change? 0.717

Another sequence to look at: RRIRRRPPRLPRPRPRPPITPRP 0.13

Another sequence to look at: RRIRDRPPRLPRPRPRPCWCPRP -0.00088

----------
Tested on: Escherichia coli TOP10
Assay: shrunken log2 fold change of peptide-encoding DNA abundance (4.5 h post-induction vs induction); higher = less antimicrobial activity (less host growth inhibition)
Details: time post-induction: 4.5 h; library: site-saturation at positions 5, 18, 19, 20
// reported shrunken log2 fold change per item
# answer = number (no unit)

Known results for sequences:
Sample RRIRERPPRLPRPRPRPEEEPRP — what was its shrunken log2 fold change? 0.102

Another sequence to look at: RRIRLRPPRLPRPRPRPHDIPRP -0.618

Another sequence to look at: RRIRVRPPRLPRPRPRPRYAPRP -0.000525

More entries:
Sample RRIRKRPPRLPRPRPRPMWEPRP — what was its shrunken log2 fold change? 0.214

Another sequence to look at: RRIRTRPPRLPRPRPRPFRHPRP 0.00803

Another sequence to look at: RRIRVRPPRLPRPRPRPCMEPRP -1

Another sequence to look at: RRIRRRPPRLPRPRPRPKNRPRP -0.0177

Another sequence to look at: RRIRLRPPRLPRPRPRPGDGPRP 0.869

Another sequence to look at: RRIRRRPPRLPRPRPRPNGDPRP 0.241

Another sequence to look at: RRIRQRPPRLPRPRPRPQLRPRP -0.165

Another sequence to look at: RRIRFRPPRLPRPRPRPGTPPRP 0.292

Another sequence to look at: RRIRVRPPRLPRPRPRPAFKPRP 0.086

Another sequence to look at: RRIRKRPPRLPRPRPRPYSKPRP -0.608

Another sequence to look at: RRIRARPPRLPRPRPRPLKLPRP -0.152

Another sequence to look at: RRIRYRPPRLPRPRPRPNQMPRP -0.194

Another sequence to look at: RRIRRRPPRLPRPRPRPNQDPRP 0.125

----------
Test system: Escherichia coli TOP10
Assay: shrunken log2 fold change of peptide-encoding DNA abundance (4.5 h post-induction vs induction); higher = less antimicrobial activity (less host growth inhibition)
Conditions: time post-induction: 4.5 h; library: site-saturation at positions 5, 18, 19, 20
Classification by shrunken log2 fold change | ranges: band A = under -0.09, band B = from -0.09 up to 0.07, band C = 0.07 and over

Here's what some known entries look like.
# classify by shrunken log2 fold change band: RRIRFRPPRLPRPRPRPFWAPRP band C

Another sequence to look at: RRIRIRPPRLPRPRPRPQIEPRP band B

Another sequence to look at: RRIRNRPPRLPRPRPRPTLLPRP band A

Another sequence to look at: RRIRMRPPRLPRPRPRPWGDPRP band B

Another sequence to look at: RRIRNRPPRLPRPRPRPACHPRP band C

More entries:
# classify by shrunken log2 fold change band: RRIRFRPPRLPRPRPRPERKPRP band B

Another sequence to look at: RRIRERPPRLPRPRPRPWIQPRP band B

Another sequence to look at: RRIRPRPPRLPRPRPRPHTHPRP band A

Another sequence to look at: RRIRVRPPRLPRPRPRPGACPRP band B

----------
Test system: Escherichia coli TOP10
Assay: shrunken log2 fold change of peptide-encoding DNA abundance (4.5 h post-induction vs induction); higher = less antimicrobial activity (less host growth inhibition)
Conditions: time post-induction: 4.5 h; library: site-saturation at positions 5, 18, 19, 20
recorded_metric: shrunken log2 fold change
# answer = number (no unit)

// fetch Escherichia coli TOP10 shrunken log2 fold change for RRIRHRPPRLPRPRPRPRPCPRP 0.227

More entries:
// fetch Escherichia coli TOP10 shrunken log2 fold change for RRIRVRPPRLPRPRPRPTNLPRP 0.0684

Another sequence to look at: RRIRARPPRLPRPRPRPLRAPRP 1.19

Another sequence to look at: RRIRVRPPRLPRPRPRPTHPPRP 0.378

----------
Test system: Escherichia coli TOP10
Experiment: shrunken log2 fold change of peptide-encoding DNA abundance (4.5 h post-induction vs induction); higher = less antimicrobial activity (less host growth inhibition)
Conditions: time post-induction: 4.5 h; library: site-saturation at positions 5, 18, 19, 20
// reported shrunken log2 fold change per item
# answer = number (no unit)

Known results for sequences:
// fetch Escherichia coli TOP10 shrunken log2 fold change for RRIRFRPPRLPRPRPRPQTGPRP -0.152

Another sequence to look at: RRIRTRPPRLPRPRPRPICVPRP -0.289

Another sequence to look at: RRIRSRPPRLPRPRPRPTLYPRP 0.0585

Another sequence to look at: RRIRGRPPRLPRPRPRPEKRPRP 0.993

Another sequence to look at: RRIRPRPPRLPRPRPRPWANPRP -0.0618

Another sequence to look at: RRIRRRPPRLPRPRPRPCTHPRP 0.176

Another sequence to look at: RRIRVRPPRLPRPRPRPKVHPRP -0.192

Another sequence to look at: RRIRDRPPRLPRPRPRPHQVPRP -0.00776

Another sequence to look at: RRIRLRPPRLPRPRPRPKVMPRP -0.044

Another sequence to look at: RRIRCRPPRLPRPRPRPFGLPRP -0.0423

More entries:
// fetch Escherichia coli TOP10 shrunken log2 fold change for RRIRLRPPRLPRPRPRPQIDPRP 0.0696

Another sequence to look at: RRIRERPPRLPRPRPRPNCAPRP 0.172

Another sequence to look at: RRIRMRPPRLPRPRPRPNSKPRP -0.129

Another sequence to look at: RRIRVRPPRLPRPRPRPEWGPRP 2.29

Another sequence to look at: RRIRKRPPRLPRPRPRPRRFPRP 0.39

----------
Test system: Escherichia coli TOP10
Test: shrunken log2 fold change of peptide-encoding DNA abundance (4.5 h post-induction vs induction); higher = less antimicrobial activity (less host growth inhibition)
Conditions: time post-induction: 4.5 h; library: site-saturation at positions 5, 18, 19, 20
# cutoff -0.001 applies to shrunken log2 fold change; >= gives TRUE, < gives FALSE

Here's what some known entries look like.
Determine whether measured shrunken log2 fold change meets or exceeds -0.001 for RRIRGRPPRLPRPRPRPAGLPRP TRUE

Another sequence to look at: RRIRHRPPRLPRPRPRPQHKPRP FALSE

Another sequence to look at: RRIRQRPPRLPRPRPRPTHMPRP TRUE

More entries:
Determine whether measured shrunken log2 fold change meets or exceeds -0.001 for RRIRMRPPRLPRPRPRPGMIPRP FALSE

Another sequence to look at: RRIRERPPRLPRPRPRPMCHPRP TRUE

Another sequence to look at: RRIRARPPRLPRPRPRPMDWPRP TRUE

Another sequence to look at: RRIRTRPPRLPRPRPRPVRDPRP TRUE

Another sequence to look at: RRIRNRPPRLPRPRPRPLKRPRP FALSE

----------
System: Escherichia coli TOP10;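 further: peptides expressed intracellularly from a pBAD plasmid library in pooled LB shake-flask culture, induced with 0.3% L-arabinose, DNA abundance read by NGS, three biological replicates, DESeq2 with apeglm shrinkage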
Assay: shrunken log2 fold change of peptide-encoding DNA abundance (4.5 h post-induction vs induction); higher = less antimicrobial activity (less host growth inhibition)
Details: time post-induction: 4.5 h; library: site-saturation at positions 5, 18, 19, 20
recorded_metric: shrunken log2 fold change
# answer = number (no unit)

Known results for sequences:
Sample RRIRYRPPRLPRPRPRPTLAPRP — what was its shrunken log2 fold change? 0.239

Another sequence to look at: RRIRDRPPRLPRPRPRPQGQPRP 0.000653

Another sequence to look at: RRIRPRPPRLPRPRPRPIKWPRP 0.0716

Another sequence to look at: RRIRRRPPRLPRPRPRPWEAPRP 0.155

Another sequence to look at: RRIRRRPPRLPRPRPRPWKEPRP -0.00773

Another sequence to look at: RRIRPRPPRLPRPRPRPCYCPRP -0.722

Another sequence to look at: RRIRVRPPRLPRPRPRPLRHPRP 0.288

Another sequence to look at: RRIRGRPPRLPRPRPRPEHNPRP 0.327

Another sequence to look at: RRIRERPPRLPRPRPRPGSWPRP 2.45

Another sequence to look at: RRIRSRPPRLPRPRPRPTSAPRP 0.321

More entries:
Sample RRIRIRPPRLPRPRPRPPFPPRP — what was its shrunken log2 fold change? 0.141
